Reference source for all entries: paper PMC7096168

Molecular target: T1, dCTCF zinc finger cluster (UniProt Q9VS55 294-614)
T1 sequence: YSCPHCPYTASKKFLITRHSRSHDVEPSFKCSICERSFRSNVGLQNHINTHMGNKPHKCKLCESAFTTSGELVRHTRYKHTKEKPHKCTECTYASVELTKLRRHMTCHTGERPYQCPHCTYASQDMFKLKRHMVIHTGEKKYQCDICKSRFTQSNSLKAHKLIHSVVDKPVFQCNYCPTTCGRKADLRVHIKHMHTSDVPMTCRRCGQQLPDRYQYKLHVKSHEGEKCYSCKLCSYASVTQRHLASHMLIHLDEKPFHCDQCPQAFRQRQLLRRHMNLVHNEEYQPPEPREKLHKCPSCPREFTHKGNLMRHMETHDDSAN
Assay: EMSA
READOUT KIND: binding result

| BINDER | RESULT VALUE |
| --- | --- |
| F2177 (dsDNA) DNA 1: ATGCCTAAAAGTATGCAGAAATTTGTTCAACAAGTCTGCTTATGTGCACCCTCTCGCGATCGGTGGCATAACCAATCGAGGATTCAGCTCTTGAGCTACCTGCCGAAAGGGGCGCGGCGACCTTAAGGGCGACATCTATATCTCGCATAGTGTGCAGAACTGCTTGTTCCTAGTCAC DNA 2: GTGACTAGGAACAAGCAGTTCTGCACACTATGCGAGATATAGATGTCGCCCTTAAGGTCGCCGCGCCCCTTTCGGCAGGTAGCTCAAGAGCTGAATCCTCGATTGGTTATGCCACCGATCGCGAGAGGGTGCACATAAGCAGACTTGTTGAACAAATTTCTGCATACTTTTAGGCAT | binds |
| F2177ΔSu (dsDNA) DNA 1: GTTCAACAAGTCTGCTTATGTGCACCCTCTCGCGATCGGTGGCATAACCAATCGAGGATTCAGCTCTTGAGCTACCTGCCGAAAGGGGCGCGGCGACCTTAAGGGCGACATCTATATCTCGCATAGTGTGCAGAACTGCTTGTTCCTAGTCAC DNA 2: GTGACTAGGAACAAGCAGTTCTGCACACTATGCGAGATATAGATGTCGCCCTTAAGGTCGCCGCGCCCCTTTCGGCAGGTAGCTCAAGAGCTGAATCCTCGATTGGTTATGCCACCGATCGCGAGAGGGTGCACATAAGCAGACTTGTTGAAC | binds |
| CTCF×4 (dsDNA) DNA 1: ACTAGTGCTGCAGCGCCACCTGGCCTTGGAGATCCTGCAGCGCCACCTGGCCTTGGAGATCCTGCAGCGCCACCTGGCCTTGGAGATCTCCAAGGCCAGGTGGCGCTGCAGCCCCGGG DNA 2: CCCGGGGCTGCAGCGCCACCTGGCCTTGGAGATCTCCAAGGCCAGGTGGCGCTGCAGGATCTCCAAGGCCAGGTGGCGCTGCAGGATCTCCAAGGCCAGGTGGCGCTGCAGCACTAGT | binds |
